assay: Acute toxicity in mice, endoperitoneal administration (LD50, Lichtfield and Wilcoxon); design: species or system mouse (Swiss albino); details: in vivo, ip, mouse, mortality within eight days
Friendly reminder: LD50 at 192 h below 600 mg/kg is class 1, at or above is class 0.

C[C@@H]([C@H](OC(=O)c1cccs1)c1ccccc1)N(C)CC=C1c2ccccc2CCc2ccccc21 (relative stereo); class 0
C[C@@H]([C@H](OC(=O)c1cccnc1)c1ccccc1)N(C)CC=C1c2ccccc2CCc2ccccc21 (relative stereo); class 1
C[C@@H]([C@H](OC(=O)C(N)Cc1cnc[nH]1)c1ccccc1)N(C)CC=C1c2ccccc2CCc2ccccc21 (some centres unmarked); class 1

Ask: Report whether reported LD50 at 192 h is lower than 600 mg/kg (strictly) for C[C@@H]([C@H](O)c1ccccc1)N(C)CC=C1c2ccccc2CCc2ccccc21 (relative stereo) [WAS 4304, reference compound]
Reply: class 1

* * *

test system: ulcers induced by ligature of the pylorus; assay: Antiulcer activity against ulcers induced by ligature of the pylorus (Shay test); type: in vivo, rat (Sprague Dawley); details: rat, oral, 24 h before pylorus ligature; * P < 0.05 versus WAS 4303 (so in the source); read-out: ED50 by oral administration at 24 h before pylorus ligature
quantity-name: ED50 (mg/kg)
The reply should contain only the number, in mg/kg.

Ask: # returns recorded ED50 (system: ulcers induced by ligature of the pylorus) for C[C@@H]([C@H](OC(=O)C(N)Cc1cnc[nH]1)c1ccccc1)N(C)CC=C1c2ccccc2CCc2ccccc21 (some centres unmarked) [ET 2002]
Reply: 0.8

Ask: So what ED50 did C[C@@H]([C@H](OC(=O)c1cccs1)c1ccccc1)N(C)CC=C1c2ccccc2CCc2ccccc21 (relative stereo) [ET 2004] get with ulcers induced by ligature of the pylorus?
Reply: 0.6

Ask: Param readout = ED50; param system = ulcers induced by ligature of the pylorus; param query = CCCCCCCCCC(=O)O[C@H](c1ccccc1)[C@H](C)N(C)CC=C1c2ccccc2CCc2ccccc21 (relative stereo) [ET 2001] ; response: value
Reply: 0.7

Ask: Form entry - test system: ulcers induced by ligature of the pylorus; read-out: ED50; compound: C[C@@H]([C@H](O)c1ccccc1)N(C)CC=C1c2ccccc2CCc2ccccc21 (relative stereo) [WAS 4304, reference compound]
Reply: 1.8

Ask: I'm curious: which ED50 was measured for C[C@@H]([C@H](OC(=O)c1cccnc1)c1ccccc1)N(C)CC=C1c2ccccc2CCc2ccccc21 (relative stereo) [ET 2003] tested on ulcers induced by ligature of the pylorus?
Reply: 0.7
